Assay: physchem
Details: octanol/phosphate buffer
Description: Octanol-phosphate buffer partition coefficient, log P of the compound after 24 hrs by UV spectroscopic analysis
reported.metric: logP at 24 h
Give only the figure.

**Q:** # lookup: logP at 24 h of COc1ccc(NC(=S)N/N=C/c2ccc(Oc3ccc4c(c3)OCO4)cc2)cc1
**A:** 4.9

**Q:** # lookup: logP at 24 h of COc1ccc(NC(=S)N/N=C/c2ccc(Oc3ccc(Cl)cc3)cc2)cc1
**A:** 5.68

**Q:** # lookup: logP at 24 h of O=[N+]([O-])c1ccc(Oc2ccc(/C=N/NC(=S)Nc3ccccc3)cc2)cc1
**A:** 4.95

**Q:** # lookup: logP at 24 h of COc1ccc(NC(=S)N/N=C/c2ccc(Oc3ccc(C)cc3)cc2)cc1
**A:** 5.44

**Q:** # lookup: logP at 24 h of Fc1ccc(Oc2ccc(/C=N/NC(=S)NC3CCCCC3)cc2)cc1
**A:** 5.82
